- experimentalSystem: Fuc(a1-3)[Gal(b1-4)]GlcNAc(b1-6)GalNAc
- testDetails: glycan array binding signal (z-score within array); higher = stronger binding
- condition: glycan notation: IUPAC condensed, linker removed
The entries come from a sample that favours the strongest signals as a whole.
binders and their reported glycan array binding signal (z-score)
parameter: glycan array binding signal (z-score)

binder	parameter	numericResult
HFR-3 (Triticum aestivum) (protein) MKGLLLCALALAFAAVTTHAQLQSCPTRCGKQADGMECPNNLCCSKDGYCGLGVDYCSAGAGCQSGACYDNKICGAQANGTLCRNNHCCSSGGRCGYGREYCSNGCQGGPCWADLKCGHLDNGKLCPNNLCCSQYGYCGLGPEFCGTGCQNGACSTDKPCGNKANGAPCTNNYCCSQYGSCGLGKDYCGTGCQNGACN	glycan array binding signal (z-score)	-1.31
Eosinophil cationic protein (ECP) (Homo sapiens), P12724 (protein) MVPKLFTSQICLLLLLGLMGVEGSLHARPPQFTRAQWFAIQHISLNPPRCTIAMRAINNYRWRCKNQNTFLRTTFANVVNVCGNQSIRCPHNRTLNNCHRSRFRVPLLHCDLINPGAQNISNCTYADRPGRRFYVVACDNRDPRDSPRYPVVPVHLDTTI	glycan array binding signal (z-score)	2.25
Ovorubin (Pomacea canaliculata), J7I2T6 (protein) MFVATSLLLAIATLVVRASPHNYLIMDIEPPKSVSERDILNLLSPLQVKHSFRVTGSTRLLIVIRLDAQSYEKLDEITVPGKVEVIPAVNMADTMERCGVSWPRVELTDDNVTLFESESTLTDVTKEQLKAMLIGYGEHMSGLLQAHRFEYYQAAGATPHRHFVFVNSVPDEIEVFGREGVDIWGGPGEFVVKPQYVTRI	glycan array binding signal (z-score)	0.355
